- target system: Concanavalin-A (Canavalia ensiformis) (UniProt P02866)
- Sequence (P02866 whole entry, looked up): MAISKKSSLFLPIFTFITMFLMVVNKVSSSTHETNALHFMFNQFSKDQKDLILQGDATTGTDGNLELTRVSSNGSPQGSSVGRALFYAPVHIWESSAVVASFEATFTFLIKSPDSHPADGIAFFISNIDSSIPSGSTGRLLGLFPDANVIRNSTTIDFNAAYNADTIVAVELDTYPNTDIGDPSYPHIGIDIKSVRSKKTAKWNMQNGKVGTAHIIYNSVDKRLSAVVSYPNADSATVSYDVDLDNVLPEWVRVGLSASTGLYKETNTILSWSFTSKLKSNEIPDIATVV
- protocol summary: ConA small-molecule binders, primary screen, artefact control for SMM control protein annotation, biochemical, small-molecule microarray, Alexa647 label, 635 nm (AID 1127);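 further: z combines 667 nm emission intensity with signal-to-noise across three replicate slides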
- experimental setup: ConA-A647 binding fluorescence, higher = more signal
Give measured composite z-score for each item. Keep answers brief.
One number for each entry.

Examples with answers:
COc1ccc([Si](C)(C)[C@H]2[C@H](CC(=O)N3CCC[C@H]3CO)O[C@@]3(C(=O)N(Cc4cccc(N5C(=O)c6cccc7cccc5c67)c4)c4ccccc43)[C@@H]2C)cc1 : 1.1
O=C1O[C@H](c2ccccc2)[C@H](c2ccccc2)N2[C@H]1[C@@H](C(=O)Nc1nc3ccccc3s1)[C@]1(C(=O)Nc3ccc(C#CC4(O)CCCCCC4)cc31)[C@H]2c1ccc(OCCO)cc1 : 1.11
[N-]=[N+]=Nc1ccccc1C[C@]1(C(N)=O)N=C(c2ccc(OCCCO)cc2)O[C@H]1c1ccccc1 : 0.6
O=C1OCC=C[C@H]2OC34C=CCN(c5ccc6ccccc6c5)C(=O)[C@H]3N(CCCCCCO)C(=O)[C@@H]4[C@@H]12 (stereo partly specified) : -0.486
COC(=O)[C@@]1(Cc2ccccc2)[C@H]2c3cc(C(=O)N4CCCC4)n(Cc4nc5ccccc5[nH]4)c3C[C@H]2CN1C(=O)c1ccccc1 : 0.912

# per-item lookup of composite z-score; items listed below
1. COCCOC(=O)N1C(=O)[C@@]2(c3cc(C#CC4=CCCCC4)ccc31)[C@H](C(=O)N1CCc3cc(OC)c(OC)cc3C1)[C@H]1C(=O)O[C@H](c3ccccc3)[C@H](c3ccccc3)N1[C@@H]2c1ccc(OCCO)cc1
2. O=C1NC(=O)C2C1C=CC(C(O)Cc1ccccc1)N2Nc1ccc(Cl)cc1Cl (stereo unspecified)
3. C[N+](C)(C)CCCCNC(=O)[C@H]1C[C@H]2C(=O)N[C@@H](Cc3ccccc3)C(=O)N2[C@H]1c1ccc(O)cc1
4. CN1C(=O)C2C=CC(C(O)c3ccc(I)cc3)N(N3CCCCC3)C2C1=O (stereo unspecified)
5. CCOC(=O)C[C@H]1[C@H](OC(=O)Cc2ccc3c(c2)OCO3)[C@@H](NC(=O)c2ccc3ccccc3c2)c2cc(OCCCO)ccc2N1C(=O)c1ccccc1
6. COc1ccc([C@H]2C[C@H]3C(Br)=C[C@@H]2C(=O)[C@]32CO2)cc1
7. C=C(COC)/C(=C/C[C@@H](OC(C)=O)c1ccc(CO)o1)c1cnc2ccccc2c1

[1.14, -0.652, 0.274, 1.15, 0.541, 0.125, 1.2]

----------
- target system: Follistatin (Homo sapiens) (UniProt P19883)
- Sequence (P19883 whole entry, looked up): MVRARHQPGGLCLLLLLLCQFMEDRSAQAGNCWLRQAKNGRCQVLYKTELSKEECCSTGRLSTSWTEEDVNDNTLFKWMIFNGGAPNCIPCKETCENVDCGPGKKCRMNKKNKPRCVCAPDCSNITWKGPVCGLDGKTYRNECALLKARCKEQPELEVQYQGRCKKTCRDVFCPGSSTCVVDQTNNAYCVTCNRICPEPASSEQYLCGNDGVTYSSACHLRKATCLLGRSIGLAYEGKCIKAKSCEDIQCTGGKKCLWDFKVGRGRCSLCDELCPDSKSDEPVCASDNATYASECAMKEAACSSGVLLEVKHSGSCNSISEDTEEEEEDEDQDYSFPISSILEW
- protocol summary: follistatin binders on small-molecule microarrays, primary screen, biochemical, small-molecule microarray, 635/667 nm fluorescence (AID 1132)
- experimental setup: FST binding, 635 nm fluorescence, higher = more signal
metric name: composite z-score
Numbers only.

COCCOC(=O)N1C(=O)[C@@]2(c3cc(C#Cc4ccc(OC)cc4)ccc31)[C@H](c1ccc(O)cc1)N1[C@H](c3ccccc3)[C@H](c3ccccc3)OC(=O)[C@H]1[C@@H]2C(=O)NC[C@H](O)c1ccccc1 : 1.3
CN(C)CCCCCCNC(=O)[C@@H]1C[C@@H]2C(=O)N[C@@H](CCCCN)C(=O)N2[C@@H]1c1cccc(OCCO)c1 : 1.45
COc1ccc(CCNC(=O)[C@@H]2c3ccccc3C(=O)N(C3Cc4ccccc4C3)[C@H]2c2ccc(CO)cc2)cc1 : 0.25

From here, focus on the item given below.
# composite z-score lookup, item CCN(CC)c1ccc(N2CC=CC34O[C@@H]5/C=C\CCCOC(=O)C5[C@H]3C(=O)N(CCO)[C@@H]4C2=O)cc1 (some centres undefined)
-0.654

----------
- target system: Fibroblast growth factor 10 (Homo sapiens) (UniProt O15520)
- Sequence (O15520 whole entry, looked up): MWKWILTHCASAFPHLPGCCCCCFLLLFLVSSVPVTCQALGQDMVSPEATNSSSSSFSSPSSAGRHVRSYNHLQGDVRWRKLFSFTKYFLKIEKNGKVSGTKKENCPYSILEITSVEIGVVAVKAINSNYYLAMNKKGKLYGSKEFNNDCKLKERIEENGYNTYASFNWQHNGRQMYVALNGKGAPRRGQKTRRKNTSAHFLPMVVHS
- protocol summary: FGF10 binders on small-molecule microarrays, primary screen, biochemical, small-molecule microarray, 635 nm fluorescence (AID 1102)
- experimental setup: FGF10 binding, fluorescence 635 nm, higher = more signal
Provide the reported composite z-score of each item.

COc1ccc([Si](C)(C)[C@H]2[C@H](CC(=O)N3CCC[C@H]3CO)O[C@@]3(C(=O)N(Cc4cccc(N5C(=O)c6cccc7cccc5c67)c4)c4ccccc43)[C@@H]2C)cc1 : 1.29
C=C(COC)/C(=C/C[C@@H](OC(C)=O)c1ccc(CO)o1)c1cnc2ccccc2c1 : 1.46

Param item = COCCOC(=O)N1C(=O)[C@@]2(c3ccccc31)[C@H](c1ccc(O)cc1)N1[C@H](c3ccccc3)[C@H](c3ccccc3)OC(=O)[C@H]1[C@@H]2C(=O)NC[C@H](O)c1ccccc1 ; retrieve measured composite z-score.
0.12

----------
So I've got a bunch of molecules here, and I need their composite z-score values.
- target system: Neurogenic locus notch homolog protein 3 (Homo sapiens) (UniProt Q9UM47)
- Sequence (Q9UM47 whole entry, looked up): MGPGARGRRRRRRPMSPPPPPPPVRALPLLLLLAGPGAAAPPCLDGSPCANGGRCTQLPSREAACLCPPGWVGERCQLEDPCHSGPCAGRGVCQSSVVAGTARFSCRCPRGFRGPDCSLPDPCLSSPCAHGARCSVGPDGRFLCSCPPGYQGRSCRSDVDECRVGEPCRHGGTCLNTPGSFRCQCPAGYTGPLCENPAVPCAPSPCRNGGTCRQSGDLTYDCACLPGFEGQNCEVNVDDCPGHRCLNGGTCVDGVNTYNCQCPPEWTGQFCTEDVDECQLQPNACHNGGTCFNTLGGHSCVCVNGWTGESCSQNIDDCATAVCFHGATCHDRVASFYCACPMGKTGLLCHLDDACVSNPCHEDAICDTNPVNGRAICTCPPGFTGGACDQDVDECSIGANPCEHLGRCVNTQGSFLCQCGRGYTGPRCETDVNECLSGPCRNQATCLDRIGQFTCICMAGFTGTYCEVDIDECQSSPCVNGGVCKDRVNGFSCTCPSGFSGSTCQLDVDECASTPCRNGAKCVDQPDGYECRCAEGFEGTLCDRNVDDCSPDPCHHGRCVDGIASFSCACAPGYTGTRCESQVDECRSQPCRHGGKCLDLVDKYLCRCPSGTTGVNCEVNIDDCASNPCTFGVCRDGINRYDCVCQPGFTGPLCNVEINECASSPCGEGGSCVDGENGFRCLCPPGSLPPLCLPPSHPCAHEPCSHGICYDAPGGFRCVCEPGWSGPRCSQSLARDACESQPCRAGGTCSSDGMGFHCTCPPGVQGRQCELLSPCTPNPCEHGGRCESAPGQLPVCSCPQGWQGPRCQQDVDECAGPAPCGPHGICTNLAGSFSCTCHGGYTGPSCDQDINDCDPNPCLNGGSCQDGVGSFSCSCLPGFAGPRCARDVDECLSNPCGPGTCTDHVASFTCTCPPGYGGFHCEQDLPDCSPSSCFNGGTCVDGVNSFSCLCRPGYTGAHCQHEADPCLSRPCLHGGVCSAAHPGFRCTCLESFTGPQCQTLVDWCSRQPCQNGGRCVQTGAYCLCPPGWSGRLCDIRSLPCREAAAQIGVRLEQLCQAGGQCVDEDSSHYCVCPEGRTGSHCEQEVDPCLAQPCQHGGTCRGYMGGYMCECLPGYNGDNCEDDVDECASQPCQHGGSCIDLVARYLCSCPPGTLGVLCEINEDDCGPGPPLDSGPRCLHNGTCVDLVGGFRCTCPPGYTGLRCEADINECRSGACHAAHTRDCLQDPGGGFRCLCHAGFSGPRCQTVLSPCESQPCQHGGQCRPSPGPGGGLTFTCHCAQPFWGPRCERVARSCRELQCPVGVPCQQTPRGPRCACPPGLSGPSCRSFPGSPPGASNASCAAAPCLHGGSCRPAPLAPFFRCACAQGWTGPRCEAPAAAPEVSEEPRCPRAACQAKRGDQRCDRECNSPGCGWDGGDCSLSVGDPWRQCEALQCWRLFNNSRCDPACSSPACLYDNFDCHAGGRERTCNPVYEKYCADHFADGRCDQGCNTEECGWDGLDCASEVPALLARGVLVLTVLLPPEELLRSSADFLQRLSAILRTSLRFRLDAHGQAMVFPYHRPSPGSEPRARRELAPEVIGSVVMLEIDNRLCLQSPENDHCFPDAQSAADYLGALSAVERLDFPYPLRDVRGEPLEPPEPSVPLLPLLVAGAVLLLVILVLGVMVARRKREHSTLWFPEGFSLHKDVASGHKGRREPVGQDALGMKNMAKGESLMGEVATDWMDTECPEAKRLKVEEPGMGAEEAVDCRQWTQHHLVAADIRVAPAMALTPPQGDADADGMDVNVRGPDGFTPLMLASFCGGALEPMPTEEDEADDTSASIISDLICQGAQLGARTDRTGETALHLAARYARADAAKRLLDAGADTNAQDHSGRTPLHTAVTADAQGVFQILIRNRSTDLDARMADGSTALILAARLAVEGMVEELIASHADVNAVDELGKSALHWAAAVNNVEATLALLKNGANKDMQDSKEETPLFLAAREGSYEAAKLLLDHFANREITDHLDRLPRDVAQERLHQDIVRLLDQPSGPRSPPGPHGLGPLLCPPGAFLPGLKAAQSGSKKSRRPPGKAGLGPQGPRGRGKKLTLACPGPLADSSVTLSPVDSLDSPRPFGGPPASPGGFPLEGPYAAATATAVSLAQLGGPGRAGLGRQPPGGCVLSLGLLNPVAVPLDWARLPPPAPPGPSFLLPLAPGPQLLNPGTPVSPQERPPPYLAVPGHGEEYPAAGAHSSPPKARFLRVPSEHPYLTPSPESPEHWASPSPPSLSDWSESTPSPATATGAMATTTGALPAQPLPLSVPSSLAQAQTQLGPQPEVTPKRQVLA
- protocol summary: NOTCH3 binders on small-molecule microarray, primary screen, biochemical, 635/667 nm fluorescence (AID 1096)
- experimental setup: NOTCH3 binding, 635 nm fluorescence, higher = more signal
Give bare numbers.

CC(C)C[C@@H]1NC(=O)[C@H]2C[C@@H](C(=O)NCCCCCCN(C)C)[C@@H](c3ccc(O)cc3)N2C1=O : 1.14
COc1cc(CO)cc(I)c1O[C@H]1C=C(C(=O)NCCO)C[C@@H](N(CCN2CCOCC2)C(=O)C2CCOC2)[C@@H]1O (some centres undefined) : 0.51
CCOC(=O)C[C@H]1[C@H](OC(=O)Cc2ccc3c(c2)OCO3)[C@@H](NC(=O)c2ccc(-c3ccccc3)cc2)c2cc(OCCCO)ccc2N1C(=O)Cc1ccc(OC)cc1 : 0.921

Query molecule follows.
What does the record list as composite z-score for C=CCOC(=O)[C@H]1[C@@H]2C(=O)O[C@@H](c3ccccc3)[C@@H](c3ccccc3)N2[C@@H](c2ccc(OCCOC(=O)[C@@H]3C[C@@H]4C(=O)N[C@@H](CCCCN(C)C)C(=O)N4[C@@H]3c3ccc(O)cc3)cc2)[C@]12C(=O)Nc1ccc(I)cc12 ?
1.05

----------
- protocol summary: E. coli acrAB mutant growth effects, primary screen, E. coli filamentation inducers, strain DRC39, OD650, 48 h (AID 1179);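 further: screen aims at cell division blockers that make cells filament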
- experimental setup: E. coli DRC39 delta-acrAB growth, higher = more signal, called active from +8 up or from −8 down
metric name: z-score
One number for each entry.

Recorded z-score, per entry:
O=C1C2C=CC(C(O)C(c3ccccc3)c3ccccc3)N(n3cnnc3)C2C(=O)N1Cc1ccccc1 (stereo not drawn) : -0.305
COC(=O)[C@@]1(Cc2ccc(OC)cc2)[C@H]2c3cc(C(=O)N4CCCC4)n(Cc4ccsc4Br)c3C[C@H]2CN1C(=O)c1ccccc1 : 0.126
C=CCOC(=O)[C@H]1[C@@H]2C(=O)O[C@@H](c3ccccc3)[C@@H](c3ccccc3)N2[C@@H](c2ccc(OCCOC(=O)[C@@H]3C[C@@H]4C(=O)N[C@@H](CCCC[N+](C)(C)C)C(=O)N4[C@@H]3c3ccc(O)cc3)cc2)[C@]12C(=O)Nc1ccccc12 : -0.661
CCOC(=O)C[C@H]1[C@H](OC(=O)c2ccc(C(=O)c3ccccc3)cc2)[C@@H](NC(=O)c2ccc(-c3ccccc3)cc2)c2cc(OCCCO)ccc2N1C(=O)c1ccccc1 : -0.566
CCOC(=O)C[C@H]1[C@H](OC(=O)Cc2ccc3c(c2)OCO3)[C@@H](NC(=O)c2ccc(-c3ccccc3)cc2)c2cc(OCCCO)ccc2N1C(=O)Cc1ccc(OC)cc1 : 0.877
CCOC(=O)[C@H]1C/C=C/C[C@H](C(=O)OCC)C(=O)O[C@H]2[C@@H](OC)O[C@H](CO)[C@@H](OC(=O)Nc3cccc(F)c3)[C@@H]2OC1=O : 1.23
C=C/C=C/[C@H]1C(=C)CN([C@@H](Cc2ccccc2)C(=O)OC)[C@@H]1[C@H](O)Cc1ccccc1 : 0.595

Proceeding to the next compound to report its z-score.
For NCCCCCNC(=O)[C@@H]1C[C@@H]2C(=O)NCC(=O)N2[C@@H]1c1ccc(O)cc1 , what is its reported z-score?
0.654

----------
For each record, write down the corresponding composite z-score.
- protocol summary: small-molecule microarray binders of probe aDKK1, primary screen, biochemical, biotinylated probe, 635/667 nm fluorescence (AID 1099);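 further: score merges 667nm spot fluorescence with signal to noise across triplicate slides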
- experimental setup: higher = more signal
One number for each entry.

CC(=O)NCCCC[C@@H]1NC(=O)[C@@H]2C[C@H](C(=O)NCCCCCCNC(=O)CS)[C@H](c3cccc(OCCO)c3)N2C1=O : -0.0828
CS(=O)(=O)CCOC(=O)C1=CC(CCCO)=CC(c2ccc(CN3CCCC3)cc2)N(Cc2cc3c(cc2Br)OCO3)C=C1C(=O)OCCS(C)(=O)=O (stereo not drawn) : 0.525

Give measured composite z-score for every item shown.
1. O=C1c2ccccc2[C@](Cc2ccccc2I)(C(=O)NC2CC2)[C@H](c2ccc(CO)cc2)N1C1CCCCC1
2. COC(=O)[C@@]1(Cc2ccc(F)cc2)[C@H]2c3cc(C(=O)N(C)C)n(Cc4ccc(S(C)(=O)=O)cc4)c3C[C@H]2CN1C(=O)c1ccccc1
3. CC(=O)n1cc(C(O)C2C=CC3C(=O)N(C)C(=O)C3N2Nc2ccccc2)c2ccccc21 (stereo not drawn)
4. COc1ccc(NN2C(C(O)c3ccc([N+](=O)[O-])cc3)C=CC3C(=O)N(C4CCCCC4)C(=O)C32)cc1 (stereo not drawn)
5. O=C1OCCC/C=C\[C@H]2OC34C=CCN(Cn5nnc6ccccc65)C(=O)[C@H]3N(CCO)C(=O)[C@@H]4C12 (stereo partly drawn)
6. C=CCN1C(=O)[C@]2(O[C@H](CCO)[C@@H]([Si](C)(C)c3ccc(OC)cc3)[C@@H]2C)c2cc(N3CCCCC3=O)ccc21
7. COCCOC(=O)N1C(=O)[C@@]2(c3cc(C#Cc4ccc(OC)cc4)ccc31)[C@H](C(N)=O)[C@H]1C(=O)O[C@H](c3ccccc3)[C@H](c3ccccc3)N1[C@@H]2c1ccccc1OCCO
8. C#CCN(CC1=CCCCC1)[C@H](c1ccccc1Br)[C@@H](O)Cc1ccccc1

1: -0.809; 2: 0.883; 3: 0.906; 4: 0.627; 5: -0.316; 6: 0.0375; 7: 0.714; 8: -0.0907

Parameter requested: composite z-score. Apply to each item below.
1. CN1C(=O)C2C=CC(C(O)C3=C[C@H]4C[C@@H](C3)C4(C)C)N(Nc3ccccc3)C2C1=O (stereo partly drawn)
2. CC(C)(C)OC(=O)CC[C@]1(C(=O)NCC(O)CO)COC(c2ccc(OCCCO)cc2)=N1 (stereo partly drawn)
3. CCOC1=C2C(CN(S(=O)(=O)c3ccc(C)cc3)C2c2ccc(C)cc2)C2C(=O)N(c3ccccc3)C(=O)C2C1 (stereo not drawn)

[0.462, 0.747, 0.0373]

// for each compound in input: emit composite z-score
1. COC(=O)C(CC#Cc1ccc2c(c1)[C@]1(C(=O)N2)[C@H](C(=O)O)[C@H]2C(=O)O[C@H](c3ccccc3)[C@H](c3ccccc3)N2[C@@H]1c1ccc(O)cc1)C(=O)OC
2. O=C1OCC=C[C@H]2OC34C=CCN(c5ccc6ccccc6c5)C(=O)[C@H]3N(CCCCCCO)C(=O)[C@@H]4[C@@H]12 (stereo partly drawn)
3. COc1cc2c(cc1O)C=[N+](Cc1cccc(OC(F)(F)F)c1)CC2
4. CC(C)(C)OC(=O)CC[C@@]12N=C(c3ccc(OCCCO)cc3)O[C@@H]1c1ccccc1N(CCS(=O)(=O)c1ccccc1)C2=O
5. CCOC(=O)[C@H]1C/C=C/C[C@H](C(=O)OCC)C(=O)O[C@H]2[C@@H](OC)O[C@H](CO)[C@@H](OC(=O)Nc3cccc(F)c3)[C@@H]2OC1=O
6. COCCOC(=O)N1C(=O)[C@@]2(c3cc(C#CC4=CCCCC4)ccc31)[C@H](C(=O)N1CCc3cc(OC)c(OC)cc3C1)[C@H]1C(=O)O[C@H](c3ccccc3)[C@H](c3ccccc3)N1[C@@H]2c1ccc(OCCO)cc1

[-0.0082, -0.117, -0.084, 0.512, -0.438, 0.0129]
